- assay: Solubility of Form I, Form IV, and Form V in buffers of different pH
- Assay type: physicochemical
- condition.context: buffer, 37 °C, pH 2.1, aqueous buffer, thermodynamic from solid, buffer pH 2.1, shaken at 37° C. water bath for 0.5 hour
- Description: Determination method: excess amount of samples of Form I, Form IV, and Form V of compound of Formula A were suspended in the buffers of different pH respectively. The system was saturated by shaking for a period of time at 37° C. in a water bath of constant temperature. Then the system was filtered, and the filtrate was used for determining solubility of the samples. The buffers of different pH were prepared according to the US pharmacopeia (USP40-NF35).
measurement.name: solubility at 0.5 hour (µg/mL)

{"compound": "C[C@H](Nc1ncnc(N)c1C#N)c1cc2ncc(Cl)n2nc1-c1ccccc1 [Form I]", "units": "µg/mL", "result.number": 800}
